tested on: M14 melanoma; assay: NCI tumour cell line growth inhibition, 48 h
Measured TGI values are reported for all entries that follow.
Give just the number in µM; leave the unit off.

As a guide, the following entries are already answered.
| compound | TGI / µM |
| --- | --- |
| Nc1nc2c(c3cnccc13)C(c1ccc(Cl)c(Cl)c1)Cc1cnccc1-2 (stereo unspecified) | 2.16 |
| NS(=O)(=O)c1nnc(NC(=O)N(c2ccccc2)c2ccccc2)s1 | 35.3 |

Here's the next entry for you.
Value lookup for TGI; key = COc1cccc(C2c3cc4c(cc3OC(O)C2C)OCO4)c1OC (stereo unspecified)
50.9

----------
tested on: UACC-62 melanoma; assay: NCI tumour cell line growth inhibition, 48 h
Measured log10 of TGI values are reported for all entries that follow.
On a log10 scale: recorded TGI, unit µM.

As a guide, the following entries are already answered.
| compound | systemUnderTest | log10 of TGI |
| --- | --- | --- |
| c1ccc(-c2c(-c3ccccc3)[n+](Cc3ccc4ccccc4c3)c(-c3ccc(-c4nc5ccccc5s4)cc3)n2Cc2ccc3ccccc3c2)cc1 | UACC-62 melanoma | 0.10 |
| C[C@]12CCC3[C@@H](CCC45OC4C(=O)CC[C@]35C)C1Cc1cnn(-c3ccc(F)cc3)c1N2 (stereo not given in full) | UACC-62 melanoma | 1.84 |
| COc1ccc2c(N)ncc(C#Cc3cc(C(=O)Nc4ccc(CN5CCN(C)CC5)c(C(F)(F)F)c4)cnc3C)c2c1 | UACC-62 melanoma | 0.77 |

Here's the next entry for you.
Value lookup for log10 of TGI; key = O=C1C=C[C@H](O)[C@@]2(CO)O[C@@H]12
1.16

----------
test system: NCI-H23 lung; assay: NCI tumour cell line growth inhibition, 48 h
Class Met: TGI at least 30 µM. Class Not met: TGI below 30 µM.

Solved entries (count: 6):
| molecule | systemUnderTest | labelClass |
| --- | --- | --- |
| CCc1ccccc1NC(=O)c1cccc([N+](=O)[O-])c1O | NCI-H23 lung | Met |
| COc1cccc(C2c3cc4c(cc3OC(O)C2C)OCO4)c1OC (stereo not given) | NCI-H23 lung | Met |
| O=C(NC1C(=O)NNC1c1cccc([N+](=O)[O-])c1)c1ccccc1 (stereo not given) | NCI-H23 lung | Met |
| COC(=O)[C@]1(C)CCC[C@@]2(C)C1CC[C@]13C=C(C(C)C)[C@H](CC21)CC3(Cl)C#N (stereo not given in full) | NCI-H23 lung | Met |
| Cn1c([N+](=O)[O-])cnc1C=C1C(=O)c2ccccc2C1=O | NCI-H23 lung | Not met |
| CC1CC(N2CCOCC2)=Nc2ccccc2N1C (stereo not given) | NCI-H23 lung | Met |

Decide: TGI of O=C1C=C[C@H](O)[C@@]2(CO)O[C@@H]12 >= 30 µM?
Met

Decide: TGI of COc1cc2c(cc1Nc1nc(N3CCc4ccccc43)c3cc[nH]c3n1)N(C(=O)CN(C)C)CC2 >= 30 µM?
Not met

----------
system: K-562 leukemia; test: NCI tumour cell line growth inhibition, 48 h; in the data active = GI50 below about 0.43 µM; inactive = the rest
Write down the outcome that applies. Available outcomes: T for active, F for inactive

| compound | labelClass |
| --- | --- |
| COc1cc2c(cc1Nc1nc(N3CCc4ccccc43)c3cc[nH]c3n1)N(C(=O)CN(C)C)CC2 | F |
| COc1ccc2sc3c(NCCCN)nc4ccccc4c3c(=O)c2c1 | F |
| COc1cc2c(N3CCN(C(=O)Nc4ccc(OC(C)C)cc4)CC3)ncnc2cc1OCCCN1CCCCC1 | F |
| CN[C@@H](C)C(=O)N[C@H]1CN(S(=O)(=O)c2cccc(S(=O)(=O)N3CC[C@H]4CC[C@@H](C(=O)NC(c5ccccc5)c5ccccc5)N4C(=O)[C@@H](NC(=O)[C@H](C)NC)C3)c2)CC[C@H]2CC[C@@H](C(=O)NC(c3ccccc3)c3ccccc3)N2C1=O | F |
| Cc1c(C(=N)C(C#N)C#N)c(=N)oc2c1ccc1ccccc12 | F |

Given c1ccc(-c2c(-c3ccccc3)[n+](Cc3ccc4ccccc4c3)c(-c3ccc(-c4nc5ccccc5s4)cc3)n2Cc2ccc3ccccc3c2)cc1 , state the outcome it received in this test.
T

Given COc1ccc2c(N)ncc(C#Cc3cc(C(=O)Nc4ccc(CN5CCN(C)CC5)c(C(F)(F)F)c4)cnc3C)c2c1 , state the outcome it received in this test.
T

Given O=C(OCc1ccc2c(Br)cc(Br)c(O)c2n1)c1cc2ccccc2[nH]1 , state the outcome it received in this test.
T

Given N#CC(C(=O)C(=O)Nc1c(Cl)cccc1Cl)c1ccccc1 (stereo not drawn) , state the outcome it received in this test.
F

Given C[C@]12CC[C@H]3[C@@H](CCC4=CC(=O)CC[C@@]43C)[C@@H]1CC[C@@H]2c1csc(N)n1 , state the outcome it received in this test.
F
